target: hCB2 (Homo sapiens, UniProt P34972); construct: host or cells: CHO (hCB2-CHO), crude membrane homogenates; assay: Competitive [3H]CP55,940 binding on membrane homogenates of hCB2-CHO cells
Sequence (P34972 whole entry): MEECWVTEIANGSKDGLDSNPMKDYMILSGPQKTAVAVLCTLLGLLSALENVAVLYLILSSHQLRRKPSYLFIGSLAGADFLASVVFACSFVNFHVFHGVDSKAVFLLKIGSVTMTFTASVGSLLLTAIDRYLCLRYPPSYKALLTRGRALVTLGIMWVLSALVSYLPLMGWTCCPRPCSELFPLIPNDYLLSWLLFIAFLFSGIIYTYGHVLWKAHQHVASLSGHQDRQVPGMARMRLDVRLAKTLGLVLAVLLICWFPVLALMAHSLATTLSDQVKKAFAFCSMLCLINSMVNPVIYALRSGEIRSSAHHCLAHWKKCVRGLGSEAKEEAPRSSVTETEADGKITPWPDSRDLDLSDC
Measurement Name: pKi
Please treat pKi as minus the base-10 logarithm of the molar concentration.

# count of solved cases: 3
chem_smiles=CCn1c2ccccc2c2cc(NC(=O)CCc3nc(-c4ccc([N+](=O)[O-])cc4C#N)no3)ccc21 test_target="hCB2 (Homo sapiens, UniProt P34972)" experimental_value=8.23
chem_smiles=CCn1c2ccccc2c2cc(NC(=O)CCc3nc(-c4ccc(F)cc4F)no3)ccc21 test_target="hCB2 (Homo sapiens, UniProt P34972)" experimental_value=7.40
chem_smiles=CCn1c2ccccc2c2cc(NC(=O)CCc3nc(-c4ccc([N+](=O)[O-])cc4F)no3)ccc21 test_target="hCB2 (Homo sapiens, UniProt P34972)" experimental_value=7.90

CCn1c2ccccc2c2cc(NC(=O)CCc3nc(-c4ccc([N+](=O)[O-])cc4Br)no3)ccc21 yielded pKi of 8.62

====

Measured pKi, listed per entry.
biological target: hCB2 (Homo sapiens); construct: host or cells: CHO (hCB2-CHO), crude membrane homogenates; assay: Competitive [3H]CP55,940 binding on membrane homogenates of hCB2-CHO cells; details: read-out: Affinity (Ki) towards hCB2
Remember the convention: pKi equals -log10 of concentration in molar.

Examples from the recorded data:
chem_smiles=CC(C)(C)c1cc(NC(=O)CCc2nc(-c3ccc(Br)nc3)no2)no1 measurement_name=pKi experimental_value=7.84
chem_smiles=O=C(CCc1nc(-c2ccc(F)nc2)no1)Nc1cnc2ccccc2c1 measurement_name=pKi experimental_value=5.64

Query CCn1c2ccccc2c2cc(NC(=O)CCc3nc(-c4ccc(Br)nc4)no3)ccc21 on hCB2 (Homo sapiens); pKi returned: 5.72

I looked up N#Cc1cc(F)ccc1-c1noc(CCC(=O)Nc2cnc3ccccc3c2)n1 and its pKi for hCB2 (Homo sapiens) was 6.14

Reported pKi (hCB2 (Homo sapiens)) for entry CCn1c2ccccc2c2cc(NC(=O)CCc3nc(-c4ccc(F)cc4O)no3)ccc21 is 5.24

Entry CCn1c2ccccc2c2cc(NC(=O)CCc3nc(-c4ccc(F)cc4OCCF)no3)ccc21 ; assay system hCB2 (Homo sapiens); pKi recorded at 5.50

The reported hCB2 (Homo sapiens) pKi of CCn1c2ccccc2c2cc(NC(=O)CCc3nc(-c4ccc(F)nc4)no3)ccc21 is 6.87

# pKi measured on hCB2 (Homo sapiens) for item CCn1c2ccccc2c2cc(NC(=O)CCc3nc(-c4ccc(F)cc4OC)no3)ccc21 = 6.65

Item: Cn1c2ccccc2c2cc(NC(=O)CCc3nc(-c4ccc(F)cc4Br)no3)ccc21 | System: hCB2 (Homo sapiens) | pKi: 6.60

====

molecular target: hCB1 (Homo sapiens, UniProt P21554); construct: host or cells: CHO (hCB1-CHO), crude membrane homogenates; test: Competitive [3H]CP55,940 binding on membrane homogenates of hCB1-CHO cells; settings: read-out: Affinity (Ki) towards hCB1
Sequence (P21554 whole entry): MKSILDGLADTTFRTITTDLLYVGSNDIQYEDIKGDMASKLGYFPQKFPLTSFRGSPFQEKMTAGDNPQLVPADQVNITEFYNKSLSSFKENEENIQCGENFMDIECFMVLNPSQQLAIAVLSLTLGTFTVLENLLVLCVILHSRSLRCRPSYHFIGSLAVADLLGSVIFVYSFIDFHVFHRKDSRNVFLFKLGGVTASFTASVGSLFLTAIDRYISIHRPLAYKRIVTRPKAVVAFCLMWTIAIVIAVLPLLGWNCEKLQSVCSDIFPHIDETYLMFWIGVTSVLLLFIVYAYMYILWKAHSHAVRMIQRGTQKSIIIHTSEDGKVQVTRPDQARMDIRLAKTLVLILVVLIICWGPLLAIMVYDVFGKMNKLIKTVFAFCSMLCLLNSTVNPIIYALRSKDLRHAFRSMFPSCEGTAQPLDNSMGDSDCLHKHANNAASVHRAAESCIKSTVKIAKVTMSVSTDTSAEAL
Measurement Name: pKi
// pKi here means minus log10 of the molar concentration (mol/L)

compound="CCn1c2ccccc2c2cc(NC(=O)CCc3nc(-c4ccc(F)nc4)no3)ccc21 [Compound 6b]" measurement_name=pKi experimental_value=5.81
compound="O=C(CCc1nc(-c2ccc(F)cc2F)no1)Nc1cn(Cc2ccccc2)c2ccccc12 [Compound 7h]" measurement_name=pKi experimental_value=5.22
compound="CCn1c2ccccc2c2cc(NC(=O)CCc3nc(-c4ccc([N+](=O)[O-])cc4Br)no3)ccc21 [Compound 6g]" measurement_name=pKi experimental_value=6.40

# input for lookup
For reference, reported pKi for CCn1c2ccccc2c2cc(NC(=O)CCc3nc(-c4ccc([N+](=O)[O-])cc4F)no3)ccc21 [Compound 6d] stands at 5.13

====

Quick reference: Ki of the listed items.
biological target: hCB1 (Homo sapiens); construct: host or cells: CHO (hCB1-CHO), crude membrane homogenates; test: Competitive [3H]CP55,940 binding on membrane homogenates of hCB1-CHO cells; details: hCB1-CHO; read-out: Ki hCB1

chem_smiles=CCn1c2ccccc2c2cc(NC(=O)CCc3nc(-c4ccc(F)cc4F)no3)ccc21 measurement_name=Ki experimental_value="> 1000 nM"

The compound identified as CCn1c2ccccc2c2cc(NC(=O)CCc3nc(-c4ccc(F)cc4Br)no3)ccc21 registered its Ki at > 1000 nM

====

biological target: hCB1 (Homo sapiens, UniProt P21554); construct: host or cells: CHO (hCB1-CHO), crude membrane homogenates; experiment: Competitive [3H]CP55,940 binding on membrane homogenates of hCB1-CHO cells; conditions: hCB1-CHO
Measurement Name: Binding to hCB1 in words

chem_smiles=O=C(CCc1nc(-c2ccc(F)nc2)no1)Nc1cnc2ccccc2c1 experimental_value="could not be observed"
chem_smiles=O=C(CCc1nc(-c2ccc(Br)nc2)no1)Nc1cnc2ccccc2c1 experimental_value="could not be observed"
chem_smiles=N#Cc1cc(F)ccc1-c1noc(CCC(=O)Nc2cnc3ccccc3c2)n1 experimental_value="could not be observed"
